# protocol-summary: Evaluation of hydrophobicity degree of dye by TLC (Rf value)
# Type: physicochemical
# condition-details: of the dye used; TLC glass plate RP-18, methanol containing 1 wt % lithium chloride

>  <compound>
CN1/C(=C/C=C/C=C/C=C/C2=[N+](C)c3ccccc3C2(C)C)C(C)(C)c2ccccc21 [Chemical formula (A1)]

>  <Rf value>
0.45

$$$$
>  <compound>
CN1/C(=C/C=C2\CCCC(/C=C/C3=[N+](C)c4ccc5ccccc5c4C3(C)C)=C2Cl)C(C)(C)c2c1ccc1ccccc21 [Chemical formula (A3)]

>  <Rf value>
0.09

$$$$
>  <compound>
CCN1/C(=C/C=C/C=C/C=C/C2=[N+](CC)c3ccccc3C2(C)C)C(C)(C)c2ccccc21 [Chemical formula (A2)]

>  <Rf value>
0.5

$$$$
>  <compound>
CN1\C(=C/C=C/C=C/C=C/C2=[N+](C)c3ccccc3C2(C)C)C(C)(C)c2ccccc21 [Chemical formula (C1)]

>  <Rf value>
0.45

$$$$
>  <compound>
CN1/C(=C/C=C/C=C/C=C/C2=[N+](C)c3ccc4ccccc4c3C2(C)C)C(C)(C)c2c1ccc1ccccc21 [Chemical formula (C2)]

>  <Rf value>
0.31

$$$$
